I'd be grateful if you could share measured polymerase ribozyme fitness (log ratio) for these entries.
B1: TPR 5TU (parent)
chain: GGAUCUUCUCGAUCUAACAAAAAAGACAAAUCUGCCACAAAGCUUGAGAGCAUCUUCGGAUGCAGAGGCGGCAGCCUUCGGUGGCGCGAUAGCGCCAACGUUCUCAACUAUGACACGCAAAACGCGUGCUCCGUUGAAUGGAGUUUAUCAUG

Variants of: B1
Experiment: polymerase ribozyme fitness, log enrichment relative to wild type (log ratio); higher = more active; in vitro selection for triplet polymerase activity
This sample holds only a part of the variants without activity.
The answer should be a number; do not append a unit.

Query string: I would be grateful if you could share the reported polymerase ribozyme fitness (log ratio) for A21C G94C C116U .
Result string: 0.209

Query string: Follow-up entry: C76U C87G
Result string: -3.96

Query string: Please answer likewise for C14G C57A C85U C99A C123U
Result string: -3.49

Query string: Next: C51U G62A U139G
Result string: -0.262

Query string: Also C38U C79U A121U C125A G143U , if possible.
Result string: -3.92

Query string: Thanks! And A16U U31A G83A C105U ?
Result string: -1.17

Query string: Next entry: C96A G136A
Result string: -0.205

Query string: # iterate: A22U C57G G58A C114G
Result string: -2.5

Query string: Note, next up: C85U G133C
Result string: -1.69

Query string: Next up: U61G U101C
Result string: -2.61

Query string: Input U53G C57A C85U A115U A121C
Result string: -2.93

Query string: Let us now turn to A60G G81A A97U C99U
Result string: -1.35

Query string: And for C27A G117A ?
Result string: -3.86

Query string: Another variant to check: C57A G58U
Result string: 0.207

Query string: Moving on to the next variant: C35U C149U
Result string: -1.57

Query string: And then A16G A22U A47C C95A C96U , what is it?
Result string: -3.89

Query string: Try the variant U127G A138G A142C
Result string: -3.48

Query string: Cool, now C27G C87U
Result string: -3.97

Query string: Input U6G C93A
Result string: -1.75

Query string: Next up: C85G A121G C132U
Result string: -2.88

Query string: Note, next up: U56A G92C
Result string: -1.7

Query string: Same question, C36G C99G C132U U146C this time
Result string: -4.06
